target: Fc-fusion protein of human PSMA (hPSMA-Fc) (Homo sapiens); construct: purchased Acro Biosystems PSA-H5264; experiment: Surface plasmon resonance assay (Biacore T200, single cycle kinetic); type: binding; conditions: PSMA SPR assay, hPSMA-Fc, 25° C.; pKD category; read-out: pKD CAT (converted)
Sequence (Q04609 44-750 limits assumed): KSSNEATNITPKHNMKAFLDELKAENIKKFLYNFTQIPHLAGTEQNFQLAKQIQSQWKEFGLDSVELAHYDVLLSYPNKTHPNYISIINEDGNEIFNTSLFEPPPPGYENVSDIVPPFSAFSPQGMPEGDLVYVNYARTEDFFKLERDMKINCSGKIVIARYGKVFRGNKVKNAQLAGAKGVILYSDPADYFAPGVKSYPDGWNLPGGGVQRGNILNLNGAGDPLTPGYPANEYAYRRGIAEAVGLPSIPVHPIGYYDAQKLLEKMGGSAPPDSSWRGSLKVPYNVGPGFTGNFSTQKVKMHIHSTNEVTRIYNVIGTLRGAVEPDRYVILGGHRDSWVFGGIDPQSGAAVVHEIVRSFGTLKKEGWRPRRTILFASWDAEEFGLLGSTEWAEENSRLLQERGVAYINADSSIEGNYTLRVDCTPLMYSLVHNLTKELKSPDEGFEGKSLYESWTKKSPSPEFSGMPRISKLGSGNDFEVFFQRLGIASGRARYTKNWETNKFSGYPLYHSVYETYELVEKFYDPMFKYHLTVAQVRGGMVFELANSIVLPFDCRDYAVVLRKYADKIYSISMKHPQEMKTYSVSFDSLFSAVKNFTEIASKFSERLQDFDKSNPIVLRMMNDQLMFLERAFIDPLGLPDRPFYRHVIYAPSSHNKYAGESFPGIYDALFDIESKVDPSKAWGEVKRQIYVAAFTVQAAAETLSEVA
Numbered stars: 1 amine (or outer) side, 2 acyl side, 3 side chain; on linkers, the order of the positions; unused ones are H or OH. Bridge positions count the residues as written; N and C are the ends. Square brackets hold non-standard residues; d marks the D form. Peptide text beside a SMILES is read from it. * marks the point of attachment. X2 = O=C(O)CN1CCN(CC(=O)O)CCN([C@H](CCC(=O)*)C(=O)O)CCN(CC(=O)O)CC1; Phe(4-Cl) = N[C@@H](Cc1ccc(Cl)cc1)C(=O)O; X1 = O=C(CC1CCN([*:1])CC1)[*:2]; Cit = NC(=O)NCCC[C@H](N)C(=O)O; Tle = CC(C)(C)[C@H](N)C(=O)O; Aib = CC(C)(N)C(=O)O
Here the recorded Kd is given for each entry.

Look up Kd for this compound: CC(=O)N[C@H](C(=O)NC(C)(C)C(=O)N[C@@H](Cc1ccccc1)C(=O)N[C@H]1CSSC[C@@H](C(=O)N[C@H](C(=O)N[C@H](C(=O)N2CCC(CC(=O)N[C@H](CCCCNC(=O)CC[C@H](C(=O)O)N3CCN(CC(=O)O)CCN(CC(=O)O)CCN(CC(=O)O)CC3)C(N)=O)CC2)[C@@H](C)O)C(C)(C)C)NC(=O)[C@H](CC(N)=O)NC(=O)C(C)(C)NC(=O)[C@H](CCCNC(=N)N)NC(=O)[C@H](CCCCN)NC1=O)[C@@H](C)O [PSM-0339] (Ac-T[Aib]FCKR[Aib]NC[Tle]T[X1][dK](X2)-NH2; disulfide 4-9)
< 12.6 nM

Report Kd for CC(=O)N[C@H](C(=O)NC(C)(C)C(=O)N[C@@H](Cc1ccc(Cl)cc1)C(=O)N[C@H]1CSSC[C@@H](C(=O)N[C@H](C(=O)N[C@H](C(N)=O)[C@@H](C)O)C(C)(C)C)NC(=O)[C@H](CO)NC(=O)C(C)(C)NC(=O)[C@H](CCCNC(N)=O)NC(=O)[C@H](CCCCN)NC1=O)[C@@H](C)O [PSM-0293] (Ac-T[Aib][Phe(4-Cl)]CK[Cit][Aib]SC[Tle]T-NH2; disulfide 4-9) please.
< 12.6 nM
